Molecular target: 17-beta-hydroxysteroid dehydrogenase type 1 (Homo sapiens, UniProt P14061)
Sequence (P14061 whole entry): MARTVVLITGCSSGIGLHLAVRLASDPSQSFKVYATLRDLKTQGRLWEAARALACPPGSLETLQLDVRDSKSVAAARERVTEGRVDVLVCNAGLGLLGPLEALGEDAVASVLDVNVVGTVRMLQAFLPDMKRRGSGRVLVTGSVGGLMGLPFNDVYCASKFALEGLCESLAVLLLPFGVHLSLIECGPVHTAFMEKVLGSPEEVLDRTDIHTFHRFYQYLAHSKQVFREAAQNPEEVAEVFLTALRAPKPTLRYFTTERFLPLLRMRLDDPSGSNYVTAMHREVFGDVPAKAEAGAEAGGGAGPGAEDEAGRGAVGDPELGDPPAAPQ
Assay: Inhibition of human recombinant 17beta-HSD1 expressed in HEK293 cell lysate assessed as conversion of radiolabeled estrone to estradiol
pIC50: −log10 of the molar value.
Label rule, in plain words: pIC50 of 5 and up is 1 (yes), under 5 is 0 (no).

Use the examples below as a reference point.
COc1c2c(cc3c1C1Oc4c(ccc(O)c4CC=C(C)C)C1CO3)OC(C)(C)C=C2 (stereo unspecified) :: 0 (no)
O=c1c(-c2ccc(O)cc2)coc2cc(O)cc(O)c12 [GENISTEIN] :: 1 (yes)
O=c1cc(-c2ccccc2)oc2cc(O)ccc12 [7-HYDROXYFLAVONE] :: 1 (yes)
O=c1c(O)c(-c2ccc(O)cc2)oc2cc(O)cc(O)c12 [KAEMPFEROL] :: 1 (yes)
Cc1c(/C=N/N=C2\CC[C@H]3[C@@H]4CCc5cc(O)ccc5[C@H]4CC[C@]23C)cnn1C :: 0 (no)
O=c1cc(-c2ccc(O)cc2)oc2cc(O)cc(O)c12 [APIGENIN] :: 1 (yes)
CCCCN(C)C(=O)CCCCCS[C@@H]1C[C@@H]2[C@H](CC[C@]3(C)[C@@H](O)CC[C@@H]23)c2ccc(O)cc21 :: 1 (yes)
O=C1C[C@@H](c2ccc(O)cc2)Oc2cc(O)cc(O)c21 [NARINGENIN] :: 1 (yes)

Check if pIC50 >= 5 (inclusive). Item: "CCOc1cc(/C=N/NC(N)=O)c(Br)c(Br)c1OCC(=O)Nc1ccc(C)cc1"
1 (yes)

Determine whether measured pIC50 meets or exceeds 5 for O=S1OCC2C(CO1)C1(Cl)C(Cl)=C(Cl)C2(Cl)C1(Cl)Cl (stereo unspecified) [ENDOSULFAN]
0 (no)

I'd appreciate it if you could say whether "Cc1ccc(S(=O)(=O)N/N=C2\C=C[C@H]3[C@@H]4CC=C5C[C@@H](O)CC[C@]5(C)[C@H]4CC[C@]23C)cc1" has pIC50 at least equal to 5.
0 (no)

---

Biological target: Aldo-keto reductase family 1 member C3 (Homo sapiens) (UniProt P42330)
Sequence (whole entry): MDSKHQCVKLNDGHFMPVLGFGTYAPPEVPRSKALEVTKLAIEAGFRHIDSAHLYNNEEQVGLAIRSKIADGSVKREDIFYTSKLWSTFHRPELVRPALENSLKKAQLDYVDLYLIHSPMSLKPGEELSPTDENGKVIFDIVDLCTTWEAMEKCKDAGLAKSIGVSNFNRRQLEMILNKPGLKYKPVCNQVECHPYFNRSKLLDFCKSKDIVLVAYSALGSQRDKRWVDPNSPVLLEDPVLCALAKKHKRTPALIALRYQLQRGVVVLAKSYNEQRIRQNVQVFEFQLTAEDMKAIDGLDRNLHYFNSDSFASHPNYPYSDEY
Assay: Inhibition of human recombinant 17beta-HSD5 expressed in intact HEK293 cells assessed as conversion of androstenedione to testosterone at 20 uM after 24 hrs
Format: cell-based
Calls of active or inactive are those of the source. No cut-off for these calls is given here.
Property: Activity

Please review the entries below; each comes with its answer.
CCCCC(=O)Nc1sc2c(c1C(=O)OCC)CCC(/C=N/O)=C2Cl :: inactive
CCOP(=O)(Nc1ccc2c(c1)Cc1c-2cc(Cl)c(NC(C)=O)c1Cl)OCC :: 84%
COc1c2c(cc3c1C1Oc4c(ccc(O)c4CC=C(C)C)C1CO3)OC(C)(C)C=C2 (stereo not given) :: inactive
C[C@]12CC[C@@H]3c4ccc(OC5CCCCO5)cc4CC[C@H]3[C@@H]1CC[C@@H]2O (stereo not given in full) :: inactive

Could you now consider this next molecule?
Record CCOc1cc(CNC2C(C)=NN=C2S)cc(Br)c1OCC(=O)NC1CCCCC1 (stereo not given) . Reported Activity: inactive

---

Target: UniProt:P37059
Sequence (P37059 whole entry): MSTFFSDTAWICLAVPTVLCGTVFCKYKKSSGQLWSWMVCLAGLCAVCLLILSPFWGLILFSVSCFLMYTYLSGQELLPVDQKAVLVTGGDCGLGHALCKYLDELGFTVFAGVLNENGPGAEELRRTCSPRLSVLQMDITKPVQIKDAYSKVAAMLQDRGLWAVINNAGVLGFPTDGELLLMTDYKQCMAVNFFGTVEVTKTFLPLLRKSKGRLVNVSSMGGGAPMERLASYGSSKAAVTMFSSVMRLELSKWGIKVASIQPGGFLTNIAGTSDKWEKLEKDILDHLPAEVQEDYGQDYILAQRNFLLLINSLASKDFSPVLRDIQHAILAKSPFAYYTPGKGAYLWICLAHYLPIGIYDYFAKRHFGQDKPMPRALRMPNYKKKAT
Assay: Inhibition of human recombinant 17beta-HSD2 expressed in HEK293 cell lysate assessed as conversion of radiolabeled estrone to estradiol at 40 uM
Format: cell-free
Set-up: scale not given: the % may be the effect or the level left
Property: Activity (%)
// note: answer is a bare numeric in %

Here is how some molecules turned out for Activity.
O=c1c(O)c(-c2ccc(O)cc2)oc2cc(O)cc(O)c12 [KAEMPFEROL] :: 4.83
O=C1CC(c2ccc(O)cc2)Oc2ccccc21 (configuration not stated) :: 63.6

GET /value?item= O=c1c(O)c(-c2ccc(O)c(O)c2)oc2cc(O)cc(O)c12 [QUERCETIN] &field=Activity returns 6.07

Activity reported for this molecule O=c1cc(-c2ccc(O)cc2)oc2cc(O)cc(O)c12 [APIGENIN] : 25.2

Sure, the documented Activity for O=C1CC(c2ccccc2)Oc2ccccc21 (configuration not stated) is 70.7

Given item O=C1CC(c2ccccc2O)Oc2ccccc21 (configuration not stated) , the value recorded as its Activity is 50.7

In plain terms, O=c1cc(-c2ccccc2)oc2cc(O)ccc12 [7-HYDROXYFLAVONE] has a documented Activity of 23.1

GET /value?item= O=c1c(-c2ccc(O)cc2)coc2cc(O)cc(O)c12 [GENISTEIN] &field=Activity returns 15.7

# Activity (molecule: "O=c1c(-c2ccc(O)cc2)coc2cc(O)ccc12" ) is 58.3

Value of Activity reported for the molecule O=C1CC(c2ccccc2)Oc2ccc(O)cc21 (configuration not stated) is 42.5

Reported Activity for COc1ccc(-c2coc3cc(O)cc(O)c3c2=O)cc1 [BIOCHANIN] was 10.1

So, "Cc1cc2c(C(C)C)c(O)c(O)c(C=O)c2c(O)c1-c1c(C)cc2c(C(C)C)c(O)c(O)c(C=O)c2c1O" ? Its Activity was 64.8
